All figures here come from patent US11879140B2.

Test system: senescent human IMR-90 fibroblast cells
Format: cell-based

substance	Validated cytotoxicity
1003 (DNA GCCAGAGGTCCGAGCCGGACGAGGGGGGCAG; chemistry not given here) [compound 1003]	+
1582 (DNA CAGGGGAGTCCGAGCCGGACGAAAAGAGGGA; chemistry not given here) [compound 1582]	+
2215 (DNA GAGAGAAAAGGCTAGCTACAACGAAGTCCAGGC; chemistry not given here) [compound 2215]	+
1736 (DNA CCATTGAGTCCGAGCCGGACGAGGGGGTGGG; chemistry not given here) [compound 1736]	+
1742 (DNA TCCAGTCCAGGCTAGCTACAACGATGAGCTGGG; chemistry not given here) [compound 1742]	+
1467 (DNA TTCACAAGAGGCTAGCTACAACGAAGAGGGGGG; chemistry not given here) [compound 1467]	+
352 (DNA GTTCTGACAGGCTAGCTACAACGAGGCGCCTGA; chemistry not given here) [compound 352]	+
442 (DNA AGTCGCGGTCCGAGCCGGACGACAGCTGCTC; chemistry not given here) [compound 442]	+
1786 (DNA GAGGTAGAAGGCTAGCTACAACGATAGGGTGCC; chemistry not given here) [compound 1786]	+
1013 (DNA TAATTCTAAGGCTAGCTACAACGAGCCAGAGGC; chemistry not given here) [compound 1013]	+
835 (DNA AGGGCTTCTCCGAGCCGGACGACTTGGAGAA; chemistry not given here) [compound 835]	+
236 (DNA CGTATACATCCGAGCCGGACGAGCTGGGGAA; chemistry not given here) [compound 236]	+
252 (DNA TACTCCCCAGGCTAGCTACAACGAATAGCCCGT; chemistry not given here) [compound 252]	+
1991 (DNA AAAGTGCAAGGCTAGCTACAACGAGAACTGGGG; chemistry not given here) [compound 1991]	+
